Exercise: for every item that follows, state its recorded Kb.
Target: human Melanocortin-4 receptor (MC4R) (Homo sapiens (Human), UniProt P32245)
Sequence (P32245 whole entry): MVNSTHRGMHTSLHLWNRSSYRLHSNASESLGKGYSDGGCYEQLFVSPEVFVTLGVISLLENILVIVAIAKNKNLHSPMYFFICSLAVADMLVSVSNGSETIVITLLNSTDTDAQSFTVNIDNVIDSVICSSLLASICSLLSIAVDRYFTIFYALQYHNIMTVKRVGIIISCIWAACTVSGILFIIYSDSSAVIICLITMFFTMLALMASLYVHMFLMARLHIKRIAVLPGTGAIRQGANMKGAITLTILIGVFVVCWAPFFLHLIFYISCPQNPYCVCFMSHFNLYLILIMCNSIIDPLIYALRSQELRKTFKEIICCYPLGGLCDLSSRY
Assay: Functional in vitro MC4R antagonist potency assay (cAMP HTRF in CHO cells)
Assay type: cell-based
Conditions: human MC4R in CHO cells, cAMP HTRF, 200 nM aMSH challenge; Kb from IC50 by Leff-Dougall equation; geometric mean; read-out: Kb (nM) Antagonist geometric
Answers are plain numbers, in nM.

These recorded examples may help you get a feel for the data.
{"columns": ["compound", "tested on", "Kb, nM"],
 "data": [
  ["COc1cc([C@@H](C)C(=O)N2CC[C@@]3(CCc4cc(-c5ccccn5)c(C)nc4N3)C2)c(F)cn1 [Example 140]", "human Melanocortin-4 receptor (MC4R) (Homo sapiens (Human), UniProt P32245)", 19],
  ["COc1cc([C@@H](C)C(=O)N2CC[C@@]3(CCc4cc(-c5nc6ccccn6n5)c(C)nc4N3)C2)c(Cl)cn1 [Example 117]", "human Melanocortin-4 receptor (MC4R) (Homo sapiens (Human), UniProt P32245)", 0.07],
  ["COc1cc([C@@H](C)C(=O)N2CC[C@]3(CCc4cc(-c5nnn(C)n5)c(C)nc4N3)C2)c(F)cn1 [Example 116]", "human Melanocortin-4 receptor (MC4R) (Homo sapiens (Human), UniProt P32245)", 1.7]
]}

For every item in the list below, what is its measured Kb?
1. COc1cc([C@@H](C)C(=O)N2CC[C@@]3(CCc4cc(-c5cncc(C)n5)c(C)nc4N3)C2)c(F)cn1 [Example 156]
2. COc1cc([C@@H](C)C(=O)N2CCC3(CCc4cc(-c5nc(OC)n(C)n5)c(C)nc4N3)C2)c(Cl)cn1 (single isomer, unassigned) [Example 115]

1. 20
2. 3.5

// each compound listed below needs its Kb
1. COc1cc([C@@H](C)C(=O)N2CC[C@@]3(CCc4cc(-c5nc6ccccn6n5)c(C)nc4N3)C2)c(F)cn1 [Example 111]
2. COc1cc(C(C)C(=O)N2CC[C@@]3(CCc4cc(-c5nnn(C)n5)c(C)nc4N3)C2)ccn1 (single isomer, unassigned) [Example 125]
3. COc1cc([C@@H](C)C(=O)N2CC[C@@]3(CCc4cc(-c5nc6n(n5)CCC6(F)F)c(C)nc4N3)C2)c(F)cn1 [Example 147]
4. COc1cc(C(C)C(=O)N2CC[C@@]3(CCc4cc(-c5ncccn5)c(C)nc4N3)C2)c(C)cn1 (single isomer, unassigned) [Example 136]
5. COc1cc([C@@H](C)C(=O)N2CC[C@@]3(CCc4cc(C5CCOCC5)c(C)nc4N3)C2)c(F)cn1 [Example 131]
6. COc1cc([C@@H](C)C(=O)N2CC[C@@]3(CCc4cc(-c5cnn(C)c5)c(C)nc4N3)C2)c(Cl)cn1 (single isomer, unassigned) [Example 105]
7. COc1cc([C@@H](C)C(=O)N2CC[C@@]3(CCc4cc(-c5cnc(C)cn5)c(C)nc4N3)C2)c(F)cn1 [Example 158]
8. COc1cc([C@@H](C)C(=O)N2CC[C@@]3(CCc4cc(-c5ccc(F)cn5)c(C)nc4N3)C2)c(F)cn1 [Example 139]

[0.47, 5.1, 0.57, 0.16, 16, 16, 23, 21]

Hi! Can you tell me Kb for each of these compounds?
1. COc1cc([C@@H](C)C(=O)N2CC[C@@]3(CCc4cc(-c5ncc(Cl)cn5)c(C)nc4N3)C2)c(F)cn1 [Example 144]
2. COc1cc([C@@H](C)C(=O)N2CC[C@@]3(CCc4cc(-c5cn(C(F)F)c(C)n5)c(C)nc4N3)C2)c(F)cn1 [Example 138]
3. COc1cc(C(C)C(=O)N2CC[C@@]3(CCc4cc(-c5nnn(C)n5)c(C)nc4N3)C2)nc(C(F)F)n1 (single isomer, unassigned) [Example 127]
4. Cc1nc2c(cc1-c1nnn(C)n1)CC[C@@]1(CCN(C(=O)[C@H](C)c3ccc(C(F)(F)F)cc3)C1)N2 (single isomer, unassigned) [Example 109]
5. COc1cc([C@@H](C)C(=O)N2CC[C@@]3(CCc4cc(-c5nc(C)n(C(F)F)n5)c(C)nc4N3)C2)c(F)cn1 [Example 188]
6. COc1cc([C@@H](C)C(=O)N2CC[C@@]3(CCc4cc(-c5nnn(C)n5)c(C)nc4N3)C2)nc(C(F)F)n1 (single isomer, unassigned) [Example 128]

1. 8.5
2. 0.44
3. 1.1
4. 5.8
5. 0.086
6. 3.8

Batch of 5 compounds: report Kb for each.
1. Cc1nc2c(cc1-c1ncccn1)CC[C@@]1(CCN(C(=O)[C@H](C)c3ccc(F)cc3F)C1)N2 (single isomer, unassigned) [Example 190]
2. COc1cc([C@@H](C)C(=O)N2CC[C@@]3(CCc4cc(-c5nc6ccccn6n5)c(C)nc4N3)C2)nc(C(F)F)n1 (single isomer, unassigned) [Example 129]
3. COc1cc([C@@H](C)C(=O)N2CC[C@@]3(CCc4cc(-c5ncc(F)cn5)c(C)nc4N3)C2)c(F)cn1 [Example 146]
4. COc1cc([C@@H](C)C(=O)N2CC[C@@]3(CCc4cc(-c5nc6ccccn6n5)c(C)nc4N3)C2)nc(C(F)F)n1 (single isomer, unassigned) [Example 130]
5. COc1cc([C@@H](C)C(=O)N2CC[C@@]3(CCc4cc(-c5nccc(C(F)(F)F)n5)c(C)nc4N3)C2)c(F)cn1 [Example 143]

1. 5.9
2. 1.5
3. 1.2
4. 9
5. 2.6

###

Biological target: human Melanocortin-4 receptor (MC4R) (Homo sapiens (Human), UniProt P32245)
Assay: Functional in vitro MC4R antagonist potency assay (cAMP HTRF in CHO cells)
Type: cell-based
Conditions: human MC4R in CHO cells, cAMP HTRF, 200 nM aMSH challenge; Kb from IC50 by Leff-Dougall equation; geometric mean; read-out: Kb (nM) Antagonist geometric
Binary label based on Kb with cut-off 8 nM: below gives fulfilled, not below gives not fulfilled.

Consider the following illustrative entries.
{"columns": ["compound", "class assignment"],
 "data": [
  ["COc1cc([C@@H](C)C(=O)N2CC[C@@]3(CCc4cc(-c5cnn(C)c5)c(C)nc4N3)C2)c(Cl)cn1 (single isomer, unassigned) [Example 104]", "fulfilled"],
  ["Cc1nc2c(cc1-c1nnn(C)n1)CC[C@@]1(CCN(C(=O)[C@H](C)c3ccc(OC(F)F)nc3)C1)N2 (single isomer, unassigned) [Example 108]", "fulfilled"],
  ["COc1cc([C@@H](C)C(=O)N2CCC3(CCc4cc(-c5nc(OC)n(C)n5)c(C)nc4N3)C2)c(F)cn1 (single isomer, unassigned) [Example 112]", "fulfilled"],
  ["COc1cc([C@@H](C)C(=O)N2CC[C@@]3(CCc4cc(-c5cncc(OC)n5)c(C)nc4N3)C2)c(F)cn1 [Example 197]", "not fulfilled"],
  ["COc1ncc(F)c([C@@H](C)C(=O)N2CC[C@@]3(CCc4cc(-c5nnn(C)n5)c(C)nc4N3)C2)n1 (single isomer, unassigned) [Example 135]", "not fulfilled"]
]}

Please state whether Kb is below 8 nM for COc1cc([C@@H](C)C(=O)N2CC[C@@]3(CCc4cc(-c5nc(C(F)F)n(C)n5)c(C)nc4N3)C2)c(F)cn1 [Example 122]
fulfilled

Lab log: compare recorded Kb with 8 nM; is it strictly lower for COc1cc([C@@H](C)C(=O)N2CC[C@@]3(CCc4cc(-c5ncccn5)c(C)nc4N3)C2)c(C)cn1 (single isomer, unassigned) [Example 137] ?
not fulfilled

Decide: Kb of COc1cc([C@@H](C)C(=O)N2CC[C@@]3(CCc4cc(-c5cnn(C)n5)c(C)nc4N3)C2)c(F)cn1 [Example 118] strictly below 8 nM?
fulfilled

Dear reviewer, please state whether Cc1nc2c(cc1-c1nc(C(F)F)n(C)n1)CC[C@@]1(CCN(C(=O)Cc3ccc(F)c(F)c3)C1)N2 [Example 121] has Kb strictly beneath 8 nM.
fulfilled

Consider COc1cc(CC(=O)N2CC[C@@]3(CCc4cc(-c5ncccn5)c(C)nc4N3)C2)c(F)cn1 [Example 106] . Does its Kb lie strictly below 8 nM?
fulfilled

###

Biological target: hMC4R (Homo sapiens (Human), UniProt P32245)
Sequence (P32245 whole entry): as above
Test: In vitro binding affinity assay using hMC4R (radioligand competition binding, [125I]-(Nle4, D-Phe7)-α-MSH)
Conditions: geometric mean, read-out: Ki (nM) geometric mean
Note that class boundaries on Ki are L (below 0.5 nM), M (0.5 nM to below 20 nM), H (20 nM or more)

{"columns": ["molecule", "class assignment"],
 "data": [
  ["Cc1nc2c(cc1-c1ncccn1)CC[C@@]1(CCN(C(=O)[C@H](C)c3cc(C(F)(F)F)ncc3Cl)C1)N2 (single isomer, unassigned) [Example 38]", "H"]
]}

Any idea which band Cc1nc2c(cc1-c1ncccn1)CC[C@@]1(CCN(C(=O)C(C)c3cc(OC(F)(F)F)ncc3Cl)C1)N2 (single isomer, unassigned) [Example 63] is in?
H

Field: class (Ki) — entry: Cc1nc2c(cc1-c1ncccn1)CC[C@@]1(CCN(C(=O)[C@H](C)c3ccc(OC(F)(F)F)cc3)C1)N2 (single isomer, unassigned) [Example 48]
L

Hi, small favor: classify COc1cc([C@@H](C)C(=O)N2CC[C@@]3(CCc4ccc(C)nc4N3)C2)c(Cl)cn1 (single isomer, unassigned) [Example 101] by its Ki when you get a moment.
H

For Cc1nc2c(cc1-c1ncccn1)CC[C@@]1(CCN(C(=O)[C@H](C)c3cc(OC(F)F)ncc3Cl)C1)N2 (single isomer, unassigned) [Example 60] , which Ki bin applies?
M

Class? Entry: COc1cc([C@@H](C)C(=O)N2CC[C@@]3(CCc4cc(-c5ncccn5)c(C)nc4N3)C2)c(C(F)(F)F)cn1 (single isomer, unassigned) [Example 41]
M

Entry Cc1ccc2c(n1)NC1(CCN(C(=O)Cc3ccc(F)cc3)C1)CC2C (single isomer, unassigned) [Example 9] belongs to which category?
H

Kindly identify the class of Cc1nc2c(cc1-c1ncccn1)CC[C@@]1(CCN(C(=O)[C@H](C)c3ccc(Cl)cc3Cl)C1)N2 (single isomer, unassigned) [Example 34] .
M

// bin(item) where item = COc1cc([C@@H](C)C(=O)N2CC[C@@]3(CCc4cc(-c5ncccn5)c(C)nc4N3)C2)c(C(F)F)cn1 (single isomer, unassigned) [Example 36]
M

Which bin, given its Ki, does Cc1nc2c(cc1-c1ncccn1)CC[C@@]1(CCN(C(=O)C(C)c3ccc(OC(F)F)nc3)C1)N2 (single isomer, unassigned) [Example 6] occupy?
L

Please report the category associated with COc1ncc(Cl)c([C@@H](C)C(=O)N2CC[C@@]3(CCc4cc(-c5ncccn5)c(C)nc4N3)C2)n1 (single isomer, unassigned) [Example 85] , nothing else.
H
